Just for reference, patent US20240158446A1 is where these values come from.

Biological target: UniProt:P01116
Test: Binding to KRAS by surface plasmon resonance (SPR), Single Cycle Kinetics
Conditions: SPR Single Cycle Kinetics, GDP-bound KRAS wild-type protein, 1:1 binding model; read-out: KRAS KD
Where a SMILES comes first, the peptide text is derived from it. Bridges are numbered along the chain shown (N, C = ends). [ ]: non-standard residue; d: D form. The star is where a group is joined. hPhe(3-Cl-4-CF3) = N[C@@H](CCc1ccc(C(F)(F)F)c(Cl)c1)C(=O)O; NPrPhe(4-CF3) = CCCN[C@@H](Cc1ccc(C(F)(F)F)cc1)C(=O)O; NMeAbu(4,4,4-F3) = CN[C@@H](CC(F)(F)F)C(=O)O; NMeGly(cPent) = CN[C@H](C(=O)O)C1CCCC1; Pro(4,4-F2) = O=C(O)[C@@H]1CC(F)(F)CN1; NMeD = CN[C@@H](CC(=O)O)C(=O)O; NMeL = CN[C@@H](CC(C)C)C(=O)O; Morpholide = C1CN(*)CCO1; NMeA = CN[C@@H](C)C(=O)O; Ac5c = NC1(C(=O)O)CCCC1; Aze = O=C(O)[C@@H]1CCN1; Sar = CNCC(=O)O
Measured property: Kd (nM)
The response must be a number in nM with no trailing unit.

[
  {
    "Compound": "CCCN1C(=O)CN(C)C(=O)CN(C)C(=O)[C@H]([C@@H](C)CC)NC(=O)[C@H](CC(F)(F)F)N(C)C(=O)C[C@@H](C(=O)N2CCOCC2)N(C)C(=O)[C@H](C2CCCC2)N(C)C(=O)C2(CCCC2)NC(=O)[C@@H]2CC(F)(F)CN2C(=O)[C@H](CCc2ccc(C(F)(F)F)c(Cl)c2)NC(=O)CN(C)C(=O)[C@@H]1Cc1ccc(C(F)(F)F)cc1 [PP0199] ([NMeAbu(4,4,4-F3)]I[Sar][Sar][NPrPhe(4-CF3)][Sar][hPhe(3-Cl-4-CF3)][Pro(4,4-F2)][Ac5c][NMeGly(cPent)][NMeD]-Morpholide; lactam N-11)",
    "Kd (nM)": 0.13
  }
]

Now, please, on to the next compound.
Challenge: What value of Kd has been reported for the following compound? CCCN1C(=O)[C@@H]2CCN2C(=O)[C@H](C)N(C)C(=O)[C@H]([C@@H](C)CC)NC(=O)[C@H](CC(C)C)N(C)C(=O)C[C@@H](C(=O)N2CCOCC2)NC(=O)[C@H](C2CCCC2)N(C)C(=O)C2(CCCC2)NC(=O)[C@@H]2CC(F)(F)CN2C(=O)[C@H](CCc2ccc(C(F)(F)F)c(Cl)c2)NC(=O)CN(C)C(=O)[C@@H]1Cc1ccc(C(F)(F)F)cc1 [PP0345] ([NMeL]I[NMeA][Aze][NPrPhe(4-CF3)][Sar][hPhe(3-Cl-4-CF3)][Pro(4,4-F2)][Ac5c][NMeGly(cPent)]D-Morpholide; lactam N-11)
Response given: 1.3

---

Molecular target: GDP-bound KRAS wild-type protein (Homo sapiens)
Test: Binding to KRAS by surface plasmon resonance (SPR), Single Cycle Kinetics
Conditions: SPR Single Cycle Kinetics, GDP-bound KRAS wild-type protein, 1:1 binding model; read-out: KRAS KD
Where a SMILES comes first, the peptide text is derived from it. Bridges are numbered along the chain shown (N, C = ends). [ ]: non-standard residue; d: D form. hPhe(3-Cl-4-CF3) = N[C@@H](CCc1ccc(C(F)(F)F)c(Cl)c1)C(=O)O; NPrPhe(4-CF3) = CCCN[C@@H](Cc1ccc(C(F)(F)F)cc1)C(=O)O; NMeGly(cPent) = CN[C@H](C(=O)O)C1CCCC1; NMeL = CN[C@@H](CC(C)C)C(=O)O; Aze = O=C(O)[C@@H]1CCN1; Ac4c = NC1(C(=O)O)CCC1; Sar = CNCC(=O)O
Entries and their Kd values follow.
The response must be a number in nM with no trailing unit.

[
  {
    "Molecule": "CCCN1C(=O)[C@@H]2CCN2C(=O)CN(C)C(=O)[C@H]([C@@H](C)CC)NC(=O)[C@H](CC(C)C)N(C)C(=O)C[C@@H](C(=O)N(C)C)NC(=O)[C@H](C2CCCC2)N(C)C(=O)C2(CCC2)NC(=O)[C@@H]2CCCN2C(=O)[C@H](CCc2ccc(C(F)(F)F)c(Cl)c2)NC(=O)CN(C)C(=O)[C@@H]1Cc1ccc(C(F)(F)F)cc1 [PP0386] ([NMeL]I[Sar][Aze][NPrPhe(4-CF3)][Sar][hPhe(3-Cl-4-CF3)]P[Ac4c][NMeGly(cPent)]D-NMe2; lactam N-11)",
    "Kd [nM]": 0.69
  }
]

Challenge: What value of Kd has been reported for the following molecule? CCC(CC)[C@H]1C(=O)N(C)[C@H](C(=O)N2CCCCC2)CC(=O)N(C)[C@@H](COC)C(=O)N[C@@H]([C@@H](C)CC)C(=O)N(C)CC(=O)N(C)[C@H]2C/C=C\CCN(C2=O)[C@@H](Cc2ccc(C(F)(F)F)cc2)C(=O)N(C)CC(=O)N[C@@H](CCc2cc(F)c(C(F)(F)F)c(F)c2)C(=O)N2C[C@H](OC(C)C)C[C@H]2C(=O)NC2(CC(C)(C)C2)C(=O)N1C
Response given: 1.4

Challenge: What value of Kd has been reported for the following molecule? CCC[C@H]1C(=O)N[C@@H]([C@@H](C)CC)C(=O)N(C)CC(=O)N(C)[C@H]2C/C=C\CCN(C2=O)[C@@H](Cc2ccc(C)cc2)C(=O)N(C)CC(=O)N[C@@H](CCc2ccc(Cl)c(OC)c2)C(=O)N2C[C@H](OCC)C[C@H]2C(=O)NC2(CC(C)(C)C2)C(=O)N(C)[C@@H](C2CCCC2)C(=O)N(C)[C@H](C(=O)N(C)C)CC(=O)N1C
Response given: 0.54

---

Entries and their Kd values follow.
Molecular target: GDP-bound KRAS wild-type protein (Homo sapiens, UniProt P01116)
Sequence (P01116 whole entry): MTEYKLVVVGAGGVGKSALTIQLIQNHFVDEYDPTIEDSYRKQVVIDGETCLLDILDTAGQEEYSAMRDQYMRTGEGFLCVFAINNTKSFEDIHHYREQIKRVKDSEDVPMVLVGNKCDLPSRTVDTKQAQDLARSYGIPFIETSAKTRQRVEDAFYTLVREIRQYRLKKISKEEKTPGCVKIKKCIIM
Assay: Binding to KRAS by surface plasmon resonance (SPR), Single Cycle Kinetics
Conditions: SPR, Single Cycle Kinetics, GDP-bound KRAS wild-type protein; read-out: KRAS KD
The response must be a number in nM with no trailing unit.

[
  {
    "Compound": "CCOC[C@H]1C(=O)N[C@@H]([C@@H](C)CC)C(=O)N(C)CC(=O)N(C)[C@H]2C/C=C\\CCN(C2=O)[C@@H](CC2CCC(F)(F)CC2)C(=O)N(C)CC(=O)N[C@@H](CCc2ccc(C(F)(F)F)c(Cl)c2)C(=O)N2C[C@@H](C)C[C@H]2C(=O)NC2(CC(C)(C)C2)C(=O)N(C)[C@@H](C(CC)CC)C(=O)N(C)[C@H](C(=O)N(C)C)CC(=O)N1C [PP2475]",
    "Readout unit": "nM",
    "Kd": 1.5
  }
]

Challenge: Kd of CCCO[C@@H]1C[C@H]2C(=O)NC3(CC(C)(C)C3)C(=O)N(C)[C@@H](C3CCCC3)C(=O)N(C)[C@H](C(=O)N3CCCC3)CC(=O)N(C)[C@H]3CCCCc4ccc(cc4)C[C@@H](C(=O)N(C)CC(=O)N[C@@H](CCc4ccc(C(F)(F)F)c(OC)c4)C(=O)N2C1)N1CC/C=C\C[C@@H](C1=O)N(C)C(=O)CN(C)C(=O)[C@H]([C@@H](C)CC)NC3=O [PP3094] on GDP-bound KRAS wild-type protein (Homo sapiens, UniProt P01116)?
Response given: 0.081

Challenge: Kd of CCC[C@H]1C(=O)N[C@@H]([C@@H](C)CC)C(=O)N(C)CC(=O)N(C)[C@H]2C/C=C\CCN(C2=O)[C@@H](Cc2ccc(C)cc2)C(=O)N(C)CC(=O)N[C@@H](CCc2ccc(C(F)(F)F)c(OC)c2)C(=O)N2CC3(CC3)C[C@H]2C(=O)NC2(CC(C)(C)C2)C(=O)N(C)[C@@H](CC(F)(F)F)C(=O)N(C)[C@H](C(=O)N(C)C)CC(=O)N1C [PP3012] on GDP-bound KRAS wild-type protein (Homo sapiens, UniProt P01116)?
Response given: 1.9

---

Biological target: UniProt P01116
Experiment: Binding to KRAS by surface plasmon resonance (SPR), Single Cycle Kinetics
Settings: SPR, Single Cycle Kinetics, 1:1 binding model; GDP-bound KRAS wild-type protein; read-out: KRAS KD
Measured property: pKd
The value called pKd is obtained by taking minus log10 of the concentration in mol/L.

[
  {
    "Compound structure": "CC[C@H](C)[C@@H]1NC(=O)[C@H](CC2CC2)N(C)C(=O)C[C@@H](C(=O)N(C)C)N(C)C(=O)[C@H](C2CCCC2)N(C)C(=O)C2(CCCC2)NC(=O)[C@@H]2C[C@H](C)CN2C(=O)[C@H](CCc2cc(F)c(C(F)(F)F)c(F)c2)NC(=O)CN(C)C(=O)[C@H](Cc2ccc(C(F)(F)F)cc2)N2CC/C=C\\C[C@@H](C2=O)N(C)C(=O)CN(C)C1=O",
    "Target system": "UniProt P01116",
    "Value measured": 10.00
  }
]

Now, please, on to the next compound.
Challenge: What value of pKd has been reported for the following compound? CCO[C@@H]1C[C@H]2C(=O)NC3(CCC3)C(=O)N(C)[C@@H](C3CCCC3)C(=O)N(C)[C@H](C(=O)N3CCCC3)CC(=O)N(C)[C@@H](CC)C(=O)N[C@@H]([C@@H](C)CC)C(=O)N(C)CC(=O)N(C)[C@H]3C/C=C\CCN(C3=O)[C@@H](CC3CCCCC3)C(=O)N(C)CC(=O)N[C@@H](CCc3cc(F)c(C(F)(F)F)c(F)c3)C(=O)N2C1
Response given: 9.82
